Reported log10 of IC50 is given for each of the following molecules.
system tested: FLuc-C-HiBiT (Photinus pyralis)
Construct: firefly luciferase with C-terminal HiBiT tag, E. coli expressed
Sequence (P08659 whole entry, looked up): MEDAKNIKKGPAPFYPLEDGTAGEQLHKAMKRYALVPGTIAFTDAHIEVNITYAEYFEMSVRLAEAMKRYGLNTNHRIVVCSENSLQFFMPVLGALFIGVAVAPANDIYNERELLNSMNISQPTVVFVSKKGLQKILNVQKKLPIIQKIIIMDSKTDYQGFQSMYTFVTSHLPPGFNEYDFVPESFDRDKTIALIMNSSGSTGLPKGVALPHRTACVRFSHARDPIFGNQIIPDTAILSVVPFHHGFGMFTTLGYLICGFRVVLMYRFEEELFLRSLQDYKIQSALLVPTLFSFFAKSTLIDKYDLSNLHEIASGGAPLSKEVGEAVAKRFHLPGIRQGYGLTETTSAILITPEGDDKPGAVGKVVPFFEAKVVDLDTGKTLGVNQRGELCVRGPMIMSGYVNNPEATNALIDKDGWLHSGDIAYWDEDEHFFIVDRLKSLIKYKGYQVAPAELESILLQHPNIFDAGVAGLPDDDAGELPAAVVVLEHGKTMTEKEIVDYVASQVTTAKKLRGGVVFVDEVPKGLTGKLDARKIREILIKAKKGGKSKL
assay name: biochemical
run parameters: enzyme activity, 10 uM ATP; read-out: IC50 or SDR50 (mM) / FLuc E
Could you please treat all values as log10 of IC50 in mM?

Consider the worked cases shown below.
| molecule | numeric result |
| --- | --- |
| Cc1ccc(NC(=O)c2ncn(-c3ccccc3)n2)cc1Cl [NCGC00107303-01] | -2.31 |
| Cc1cc(CNC(=O)CC2C=C[S+](=O)([O-])C2)c2[nH]c(-c3ccccc3)c(C)c2c1 (centres unmarked) [NCGC00441154-01] | -1.95 |
| CCOc1ccc(C(=O)Nc2cc(-c3nc4cc(OC)ccc4o3)ccc2C)cc1[N+](=O)[O-] [NCGC00103318-01] | -2.11 |
| Fc1cccc(Nc2nc(-c3ccccc3)no2)c1 [NCGC00422294-01] | -2.15 |
| Fc1ccc(Cc2cn3cc(-c4ccc(F)cc4)nc3s2)cc1 [NCGC00102134-01] | -3.06 |
| CCOC(=O)N1CCc2c(sc(NCc3cccs3)c2C(=O)Nc2ccc(OC)cc2OC)C1 [NCGC00140799-01] | -2.50 |

For the next question, use this molecule.
Given CCC(=O)Nc1cc2nn(-c3ccc(C)cc3)nc2cc1C [NCGC00098511-01] , state its recorded log10 of IC50. -3.40

====

system tested: FLuc-C-HiBiT (firefly luciferase) (Photinus pyralis, UniProt P08659, form not given/L550V)
Sequence (P08659 2-550 L550V, form open): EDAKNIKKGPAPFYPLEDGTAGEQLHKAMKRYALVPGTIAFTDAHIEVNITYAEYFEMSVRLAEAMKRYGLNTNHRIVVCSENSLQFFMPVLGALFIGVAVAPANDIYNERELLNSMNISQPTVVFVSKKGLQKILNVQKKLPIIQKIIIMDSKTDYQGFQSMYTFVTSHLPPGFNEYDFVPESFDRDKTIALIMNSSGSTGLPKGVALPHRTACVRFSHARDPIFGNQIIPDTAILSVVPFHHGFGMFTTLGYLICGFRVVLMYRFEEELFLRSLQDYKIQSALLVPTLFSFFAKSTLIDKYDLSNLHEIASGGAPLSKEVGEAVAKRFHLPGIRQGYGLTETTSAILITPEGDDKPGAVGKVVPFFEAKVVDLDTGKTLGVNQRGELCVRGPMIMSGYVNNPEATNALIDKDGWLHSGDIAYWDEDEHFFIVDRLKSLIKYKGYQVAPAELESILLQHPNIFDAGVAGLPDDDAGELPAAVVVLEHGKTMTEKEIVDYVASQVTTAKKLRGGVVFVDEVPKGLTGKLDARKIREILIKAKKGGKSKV
assay name: SDR assay, FLuc-C-HiBiT
run parameters: 10 nM FLuc-C-HiBiT; normalized activity; Log [Compound], M -9.25
measured attribute: SDR No ATP
When you answer, write just the number.

Solved cases below.
| compound | system tested | SDR No ATP |
| --- | --- | --- |
| CNC(=O)c1cccc2c1CCN2C(=O)Nc1ccc(C)cc1 [compound 00430160] | FLuc-C-HiBiT (firefly luciferase) (Photinus pyralis, UniProt P08659, form not given/L550V) | 9.9 |
| O=C(O)c1cccc2c1CCN2C(=O)Nc1ccc(F)cc1 [compound 00432687] | FLuc-C-HiBiT (firefly luciferase) (Photinus pyralis, UniProt P08659, form not given/L550V) | 10.5 |
| CC1CCCN(c2ncnc3c2cnn3-c2ccccc2)C1 (centres unmarked) [compound 00081381] | FLuc-C-HiBiT (firefly luciferase) (Photinus pyralis, UniProt P08659, form not given/L550V) | 10.7 |
| Cc1ccc(-n2ncc3c(N4CCCCCC4)ncnc32)cc1 [compound 00139018] | FLuc-C-HiBiT (firefly luciferase) (Photinus pyralis, UniProt P08659, form not given/L550V) | 10.7 |
| COc1ccc(-c2nc(-c3ccc(C(=O)O)cc3)no2)cc1 [compound 00168104] | FLuc-C-HiBiT (firefly luciferase) (Photinus pyralis, UniProt P08659, form not given/L550V) | 9.8 |

Report SDR No ATP for Fc1ccc(-c2cn3cc(Cc4ccccc4)sc3n2)cc1 [compound 00102110] please. 12.9

Record request: SDR No ATP value, item CC(CNC(=O)C1CCN(C(=O)c2ncn3c2COC(c2ccccc2)C3)CC1)c1ccccc1 (centres unmarked) [compound 00449795] 9.6

Recorded SDR No ATP for O=C(O)CCSc1nnc(-c2ccc(Cl)cc2Cl)o1 [compound 00103142] , please? 12.2
